- SYSTEM NAME: T1, ZFP SBS#897 (synthetic)
- T1 chain: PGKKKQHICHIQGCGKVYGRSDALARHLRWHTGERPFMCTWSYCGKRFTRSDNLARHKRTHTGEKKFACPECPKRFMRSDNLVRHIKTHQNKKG
- EXPERIMENT NOTES: EMSA
- ASSAY CONDITIONS: tags: MBP fusion
READOUT NAME: Kd (nM)
One number for each entry, in nM.

Name the recorded Kd for GAGGAGGTGA (dsDNA) DNA 1: GAGGAGGTGA DNA 2: TCACCTCCTC .
0.07
